Sourced from ChEMBL document CHEMBL4145697

PROCEDURE DETAILS: Stability in mouse liver microsomes assessed as compound remaining level at 200 uM incubated for 20 mins by LC-MS method
Type: ADME, microsome
TEST CONTEXT: read-out: Stability
Entries and their measured remaining at 20 min, 200 µM follow.
Field format: number, assumed %, no unit text.

CHEMICAL STRUCTURE: COc1ccc(S(=O)(=O)Nc2ccc(NS(=O)(=O)c3ccc(OC)cc3)c3ccccc23)cc1
UNIT SPEC: %
remaining at 20 min, 200 µM: 15

# next compound below
Any idea what its remaining at 20 min, 200 µM is? The compound is "COc1ccc(S(=O)(=O)N(CC(N)=O)c2ccc(N(CC(N)=O)S(=O)(=O)c3ccc(OC)cc3)c3ccccc23)cc1"
0

----------
TESTED ON: Keap1/Nrf2 (Homo sapiens)
Sequence (Q16236 whole entry, the tested form may be a part): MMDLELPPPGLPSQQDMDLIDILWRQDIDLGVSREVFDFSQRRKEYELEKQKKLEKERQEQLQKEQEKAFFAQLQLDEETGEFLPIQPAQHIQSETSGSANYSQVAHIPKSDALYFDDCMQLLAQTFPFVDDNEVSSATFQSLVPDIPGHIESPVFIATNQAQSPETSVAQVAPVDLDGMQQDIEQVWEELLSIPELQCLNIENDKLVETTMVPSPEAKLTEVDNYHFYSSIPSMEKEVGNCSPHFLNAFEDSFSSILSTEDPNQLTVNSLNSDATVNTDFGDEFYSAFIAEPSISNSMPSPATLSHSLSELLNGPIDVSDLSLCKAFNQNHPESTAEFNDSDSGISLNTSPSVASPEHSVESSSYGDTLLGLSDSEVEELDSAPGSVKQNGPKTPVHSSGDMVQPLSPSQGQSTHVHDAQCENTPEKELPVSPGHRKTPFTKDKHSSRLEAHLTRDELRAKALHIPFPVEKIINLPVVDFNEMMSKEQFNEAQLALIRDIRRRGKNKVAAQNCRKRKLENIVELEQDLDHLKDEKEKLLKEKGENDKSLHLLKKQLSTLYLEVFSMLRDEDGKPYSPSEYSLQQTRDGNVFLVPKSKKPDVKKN
Sequence (Q14145 whole entry, the tested form may be a part): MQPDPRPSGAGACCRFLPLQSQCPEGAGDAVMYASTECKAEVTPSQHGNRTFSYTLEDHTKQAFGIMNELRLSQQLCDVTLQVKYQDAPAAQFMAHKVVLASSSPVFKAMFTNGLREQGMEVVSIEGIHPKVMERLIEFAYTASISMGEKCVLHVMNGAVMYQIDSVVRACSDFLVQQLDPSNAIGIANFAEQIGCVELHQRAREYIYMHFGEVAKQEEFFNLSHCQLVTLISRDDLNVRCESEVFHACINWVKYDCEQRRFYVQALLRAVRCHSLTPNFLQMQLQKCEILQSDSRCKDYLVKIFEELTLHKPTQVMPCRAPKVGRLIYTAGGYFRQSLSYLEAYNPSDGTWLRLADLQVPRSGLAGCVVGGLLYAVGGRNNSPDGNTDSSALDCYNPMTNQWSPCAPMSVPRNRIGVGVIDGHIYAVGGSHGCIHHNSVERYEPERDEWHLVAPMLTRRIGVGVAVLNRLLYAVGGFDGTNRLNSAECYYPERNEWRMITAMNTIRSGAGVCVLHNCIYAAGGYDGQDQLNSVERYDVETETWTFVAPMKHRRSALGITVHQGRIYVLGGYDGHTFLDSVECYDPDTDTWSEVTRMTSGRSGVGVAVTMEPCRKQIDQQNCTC
PROCEDURE DETAILS: Inhibition of Keap1 Kelch domain (unknown origin) /Nrf2 (unknown origin) interaction using fluorescein-labeled 9-mer peptide containing NRF2 Neh2 domain ETGE motif by fluorescence anisotropy assay
METRIC: IC50

MOLECULE: COc1ccc(S(=O)(=O)N(CC(=O)O)c2ccc(N(CC(=O)O)S(=O)(=O)c3ccc(OC)cc3)cc2)cc1
TESTED ON: Keap1/Nrf2 (Homo sapiens)
IC50: 0.98 µM
--
MOLECULE: COc1ccc(S(=O)(=O)Nc2nnc(NS(=O)(=O)c3ccc(OC)cc3)c3ccccc23)cc1
TESTED ON: Keap1/Nrf2 (Homo sapiens)
IC50: > 25 µM
--
MOLECULE: COc1ccc(S(=O)(=O)N(CC(=O)O)Cc2ccccc2CN(CC(=O)O)S(=O)(=O)c2ccc(OC)cc2)cc1
TESTED ON: Keap1/Nrf2 (Homo sapiens)
IC50: > 25 µM
--
MOLECULE: COc1ccc(S(=O)(=O)N(CC(=O)O)c2ccc(N(CC(=O)O)S(=O)(=O)c3ccc(OC)cc3)c3ncccc23)cc1
TESTED ON: Keap1/Nrf2 (Homo sapiens)
IC50: 0.101 µM
--
MOLECULE: COc1ccc(S(=O)(=O)N(CC(=O)O)c2ccc(N(CC(=O)O)S(=O)(=O)c3ccc(OC)cc3)nc2)cc1
TESTED ON: Keap1/Nrf2 (Homo sapiens)
IC50: > 25 µM
--
MOLECULE: COc1ccc(S(=O)(=O)N(CC=CCN(CC(=O)O)S(=O)(=O)c2ccc(OC)cc2)CC(=O)O)cc1 (mixture of isomers)
TESTED ON: Keap1/Nrf2 (Homo sapiens)
IC50: > 25 µM
--
MOLECULE: COc1ccc(S(=O)(=O)N(CC(=O)O)C(=O)c2ccccc2C(=O)N(CC(=O)O)S(=O)(=O)c2ccc(OC)cc2)cc1
TESTED ON: Keap1/Nrf2 (Homo sapiens)
IC50: > 25 µM
--
MOLECULE: COc1ccc(S(=O)(=O)Nc2ccc(NS(=O)(=O)c3ccc(OC)cc3)c3ncccc23)cc1
TESTED ON: Keap1/Nrf2 (Homo sapiens)
IC50: > 25 µM
--
MOLECULE: COc1ccc(S(=O)(=O)Nc2ccc(NS(=O)(=O)c3ccc(OC)cc3)c3[nH]ccc23)cc1
TESTED ON: Keap1/Nrf2 (Homo sapiens)
IC50: > 25 µM

Any idea what its IC50 is? The molecule is "COc1ccc(S(=O)(=O)N(CC(=O)O)c2ccc(N(CC(=O)O)S(=O)(=O)c3ccc(OC)cc3)c3[nH]ccc23)cc1"
1.3 µM

----------
PROCEDURE DETAILS: Kinetic solubility in pH 7.4 incubated for 1 hr by HPLC method
Assay type: physicochemical
TEST CONTEXT: buffer, read-out: Kinetic_solubility
METRIC: solubility kinetic at 1 h (µM)
Field format: number, assumed µM, no unit text.

Worked cases, answers included:
CHEMICAL STRUCTURE: COc1ccc(S(=O)(=O)N(CC(=O)O)c2ccc(N(CC(=O)O)S(=O)(=O)c3ccc(OC)cc3)c3ccccc23)cc1
solubility kinetic at 1 h (µM): 440

CHEMICAL STRUCTURE: COc1ccc(S(=O)(=O)Nc2ccc(NS(=O)(=O)c3ccc(OC)cc3)c3ccccc23)cc1
solubility kinetic at 1 h (µM): 5.4

# next molecule below
Any idea what its solubility kinetic at 1 h is? The molecule is "COc1ccc(S(=O)(=O)N(CC(N)=O)c2ccc(N(CC(N)=O)S(=O)(=O)c3ccc(OC)cc3)c3ccccc23)cc1"
22
